Values compiled from patent US12528790B2.

// EC50 lookup, one value per entry
Tested on: RSV A2 strain
experiment_description: In vitro CPE (CytoPathic Effect) inhibition effect evaluation test, RSV type A
Assay type: cell-based
test_parameters: human respiratory syncytial virus; inhibitory effect against RSV type A (RSV A2 strain), HEp-2 cells, CPE inhibition; read-out: EC50

Example entries and their recorded answers appear below.
N#CC1(NC(=O)c2cnc(N3CC4(CCOCC4)c4cc(OC5CCN(c6ncccn6)CC5)ccc43)nc2C(F)(F)F)CCCCC1    < 10 nM
COc1ccc2c(c1)C1(CCOCC1)CN2c1nc(CCCO)c(C(=O)NC2(C(=O)O)C3CC4CC(C3)CC2C4)c(C(F)(F)F)n1 (stereo not drawn)    10 to 100 nM
O=C(NC1(C(=O)O)C2CC3CC(C2)CC1C3)c1cnc(N2CC3(CCCCC3)c3c2ccc(OC2CCN(c4ncccn4)CC2)c3F)nc1C(F)(F)F (stereo not drawn)    < 10 nM
O=C(NC1(C(=O)O)C2CC3CC(C2)CC1C3)c1cnc(-c2cn(C3CCC(F)(F)CC3)c3cc(OCCNc4ncccn4)ccc23)nc1C(F)(F)F (stereo not drawn)    < 10 nM
O=C(NC1(C(=O)O)C2CC3CC(C2)CC1C3)c1ccc(-c2cn(CCO)c3cc(OC4CCN(c5ncccn5)CC4)ccc23)nc1C(F)(F)F (stereo not drawn)    < 10 nM

// next entry
Please report the recorded EC50 for O=C(NC1(C(=O)O)C2CC3CC(C2)CC1C3)c1cnc(-c2cn(C3CCC(F)(F)CC3)c3cc(OC4CC(CN5CC(F)(F)C5)C4)ccc23)nc1C(F)(F)F (single isomer, unassigned) .
< 10 nM

---

Test system: RSV A2 strain
experiment_description: In vitro CPE (CytoPathic Effect) inhibition effect evaluation test, RSV type A
Assay type: cell-based
test_parameters: human respiratory syncytial virus; inhibitory effect against RSV type A (RSV A2 strain), HEp-2 cells, CPE inhibition; read-out: EC50
Method: The test sample is diluted in advance to an appropriate concentration with DMSO, and 3-fold series of serial dilutions were prepared on a 384-well plate (0.32 μL/well). […] The luminescent signal was then measured by EnVision (PerkinElmer). […] In the case of evaluation against RSV type B, RSV B (Wash/18537 strain) was infected in the same manner as the type A, cultured for 5 days, and quantitated in the same manner as for the A2 strain.
quantity_name: EC50

O=C(NC1(C(=O)O)C2CC3CC(C2)CC1C3)c1cnc(-c2cn(C3CCC(F)(F)CC3)c3cc(OC4CCC(N5CC(F)(F)C5)C4)ccc23)nc1C(F)(F)F (stereo not drawn)    < 10 nM
Cn1ccc(CCOc2ccc3c(-c4ncc(C(=O)NC5(C(=O)O)C6CC7CC(C6)CC5C7)c(C(F)(F)F)n4)cn(C4CCC(F)(F)CC4)c3c2)n1 (stereo not drawn)    < 10 nM

Please report the recorded EC50 for CC(F)(F)c1nc(N2CC3(CCCCC3)c3cc(CN4CCN(c5ncccn5)CC4)ccc32)ncc1C(=O)NC1(C(=O)O)C2CC3CC(C2)CC1C3 (stereo not drawn) .
< 10 nM

Please report the recorded EC50 for O=C(NC1(C(=O)O)C2CC3CC(C2)CC1C3)c1ccc(-c2cn([C@H]3CC[C@@H](O)CC3)c3cc(OC4CCN(c5ncccn5)CC4)ccc23)nc1C(F)(F)F (stereo partly drawn) .
< 10 nM

Please report the recorded EC50 for `O=C(NC1(C(=O)NS(=O)(=O)N2CCOCC2)CCCCC1)c1cnc(N2CCc3cc(OCCC4CCOCC4)ccc32)nc1C(F)(F)F` .
10 to 100 nM

Please report the recorded EC50 for `COc1cccnc1N1CCC(Oc2ccc3c(c2)CCN3c2ncc(C(=O)NC3(C(=O)O)CCCCC3)c(C(F)(F)F)n2)CC1` .
< 10 nM

Please report the recorded EC50 for O=C(NC1(C(=O)O)CC2CCC1C2)c1cnc(N2CCc3cc(OCCC4CCOCC4)ccc32)nc1C(F)(F)F (stereo not drawn) .
< 10 nM

Please report the recorded EC50 for `COc1cccc(C(=O)Nc2ccc3c(c2)CCN3c2ncc(C(=O)NC3(C(=O)O)CCCCC3)c(C(F)(F)F)n2)c1` .
10 to 100 nM

Please report the recorded EC50 for CC(F)(F)c1nc(N2CC3(CC3)c3cc(O[C@H]4CC[C@H](N5CC(F)(F)C5)CC4)ccc32)ncc1C(=O)NC1(C(=O)O)C2CC3CC(C2)CC1C3 (stereo partly drawn) .
< 10 nM

Please report the recorded EC50 for O=C(NC1(C(=O)O)C2CC3CC(C2)CC1C3)c1cnc(N2CC3(CCCCC3)c3cc(C(=O)N4CCN(c5ncccn5)CC4)ccc32)nc1C(F)(F)F (stereo not drawn) .
< 10 nM

Please report the recorded EC50 for COC[C@H](C)n1cc(-c2ncc(C(=O)NC3(C(=O)O)C4CC5CC(C4)CC3C5)c(C(F)(F)F)n2)c2ccc(O[C@H]3CC[C@H](N4CC(F)(F)C4)CC3)cc21 (stereo partly drawn) .
< 10 nM

Please report the recorded EC50 for Cc1nc(N2CC3(CCOCC3)c3cc(OC4CCN(c5ncccn5)CC4)ccc32)nc(C(F)(F)F)c1C(=O)NC1(C(=O)O)C2CC3CC(C2)CC1C3 (stereo not drawn) .
< 10 nM
